Provide the recorded Percent Inhibition for the entries that follow.
- System: NADPH oxidase (Homo sapiens, UniProt P04839+P13498+P14598+P19878)
- Construct: 4×10^5 cell equivalents (cell eq) of neutrophil membranes; of neutrophil cytosol, or (2) 100 nM each of baculovirus recombinant p47-phox and p67-phox; from tissue; host or cells: neutrophil membranes and cytosol (human neutrophils, leukapheresis or blood)
- Sequence (P04839 2-570 limits assumed): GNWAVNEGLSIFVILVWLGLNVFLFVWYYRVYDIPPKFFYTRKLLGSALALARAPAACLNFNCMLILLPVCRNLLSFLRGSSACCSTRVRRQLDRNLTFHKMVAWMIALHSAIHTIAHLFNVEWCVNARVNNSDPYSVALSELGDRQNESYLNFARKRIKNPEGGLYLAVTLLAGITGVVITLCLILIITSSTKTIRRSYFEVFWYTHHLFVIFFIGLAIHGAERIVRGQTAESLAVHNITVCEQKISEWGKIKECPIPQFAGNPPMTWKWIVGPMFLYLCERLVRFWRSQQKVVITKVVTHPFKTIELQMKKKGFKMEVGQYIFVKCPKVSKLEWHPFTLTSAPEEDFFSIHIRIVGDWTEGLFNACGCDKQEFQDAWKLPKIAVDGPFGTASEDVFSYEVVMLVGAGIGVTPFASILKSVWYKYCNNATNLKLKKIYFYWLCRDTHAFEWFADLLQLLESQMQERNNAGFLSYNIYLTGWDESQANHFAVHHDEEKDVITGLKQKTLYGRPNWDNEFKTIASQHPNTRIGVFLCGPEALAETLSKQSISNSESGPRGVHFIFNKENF
- Sequence (P13498 2-195 limits assumed): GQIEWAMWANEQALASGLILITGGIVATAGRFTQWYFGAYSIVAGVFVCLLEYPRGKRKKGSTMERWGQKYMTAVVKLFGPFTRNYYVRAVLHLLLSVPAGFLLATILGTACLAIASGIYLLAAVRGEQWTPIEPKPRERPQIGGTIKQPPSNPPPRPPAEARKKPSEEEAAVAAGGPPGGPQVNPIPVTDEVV
- Sequence (P14598 whole entry): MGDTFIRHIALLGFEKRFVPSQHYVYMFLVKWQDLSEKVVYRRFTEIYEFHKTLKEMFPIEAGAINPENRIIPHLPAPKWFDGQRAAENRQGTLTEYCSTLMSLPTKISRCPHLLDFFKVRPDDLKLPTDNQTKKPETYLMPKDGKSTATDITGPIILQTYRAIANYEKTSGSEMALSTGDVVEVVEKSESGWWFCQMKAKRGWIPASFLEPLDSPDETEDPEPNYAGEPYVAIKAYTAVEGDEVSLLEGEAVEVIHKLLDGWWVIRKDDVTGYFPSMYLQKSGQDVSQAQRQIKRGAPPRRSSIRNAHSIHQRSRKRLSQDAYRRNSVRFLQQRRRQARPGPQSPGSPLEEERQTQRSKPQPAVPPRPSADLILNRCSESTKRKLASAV
- Sequence (P19878 whole entry): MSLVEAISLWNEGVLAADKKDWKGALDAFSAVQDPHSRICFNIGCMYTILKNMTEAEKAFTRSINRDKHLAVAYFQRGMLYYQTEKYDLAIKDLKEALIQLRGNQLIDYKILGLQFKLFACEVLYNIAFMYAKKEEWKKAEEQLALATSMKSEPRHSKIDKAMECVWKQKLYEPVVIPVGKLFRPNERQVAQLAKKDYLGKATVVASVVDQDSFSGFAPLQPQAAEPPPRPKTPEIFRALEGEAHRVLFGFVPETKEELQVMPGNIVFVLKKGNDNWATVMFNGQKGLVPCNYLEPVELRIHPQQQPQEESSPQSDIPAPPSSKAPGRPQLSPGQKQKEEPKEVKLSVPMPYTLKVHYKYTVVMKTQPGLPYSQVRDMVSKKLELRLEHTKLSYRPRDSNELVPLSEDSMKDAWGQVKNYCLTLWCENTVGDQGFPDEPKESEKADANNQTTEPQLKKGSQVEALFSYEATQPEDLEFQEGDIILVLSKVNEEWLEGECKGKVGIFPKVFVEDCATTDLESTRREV
- Measurement notes: cell-free NADPH oxidase assay (O2- production), inhibition by peptides
- Type: biochemical
- Condition context: 27 μg/ml peptide; cell-free system
Where no end group is shown, it is not given here.
Remember to put the unit after the number in your answer.

Sample GLAQKLLEALQKALLA [ICS4, GLAQKLLEALQKALLA] — what was its Percent Inhibition?
86.8%

Look up Percent Inhibition for this sequence: SSLFSRLFGKKQ [ARF 28, SSLFSRLFGKKQ]
43.5%

Which Percent Inhibition value belongs to TISSLFSRLFGKKQ [ARF 27, TISSLFSRLFGKKQ] ?
55.9%

Given GLTISSLFSRLFGKKQ [ARF 26, GLTISSLFSRLFGKKQ] , state its recorded Percent Inhibition.
30.9%
